Data credit: paper PMC7865074

# assay_system: full-length (FL) NS5 protein (wt PBM) of West Nile virus (West Nile virus)
# assay_summary: split reporter (BiFC, NanoBiT); N2H split-NanoLuc in HEK-293T cells; full-length NS5 with 257 single PDZ domains; read-out NLR with NS5 minus NLR with NS5ΔPBM, three experiments; hits > 0.25
reported_endpoint: NLR(NS5) - NLR(NS5ΔPBM)

1) Regulating synaptic membrane exocytosis protein 2, PDZ domain (N2H construct) (domain or fragment) DGSVPRDSGAMLGLKVVGGKMTESGRLCAFITKVKKGSLADTVGHLRPGDEVLEWNGRLLQGATFEEVYNIILESKPEPQVELVVSR	11.2
2) PDZ domain-containing protein 2, PDZ domain 2 (N2H construct) (domain or fragment) KMELLKESDGLGIQVSGGRGSKRSPHAIVVTQVKEGGAAHRDGRLSLGDELLVINGHLLVGLSHEEAVAILRSATGMVQLVVASKE	0.49
3) MPDZ, PDZ domain 6 (N2H construct) (domain or fragment) TINIAKGNSSLGMTVSANKDGLGMIVRSIIHGGAISRDGRIAIGDCILSINEESTISVTNAQARAMLRRHSLIGPDIKITYV	0.38
4) Ligand of Numb protein X 2, PDZ domain 2 (N2H construct) (domain or fragment) QVALHKRDSGEQLGIKLVRRTDEPGVFILDLLEGGLAAQDGRLSSNDRVLAINGHDLKYGTPELAAQIIQASGERVNLTIARPG	0.25
5) Partitioning defective 3 homolog B, PDZ domain 1 (N2H construct) (domain or fragment) TRTVEISGEGGPLGIHVVPFFSSLSGRILGLFIRGIEDNSRSKREGLFHENECIVKINNVDLVDKTFAQAQDVFRQAMKSPSVLLHVLP	0.42
6) MAGUK p55 subfamily member 5, PDZ domain (N2H construct) (domain or fragment) IVRIEKARDIPLGATVRNEMDSVIISRIVKGGAAEKSGLLHEGDEVLEINGIEIRGKDVNEVFDLLSDMHGTLTFVLIPSQ	0.26
7) PDZ domain-containing protein 4, PDZ domain (N2H construct) (domain or fragment) EVELYKSSHRDKLGLMVCYRTDDEEDLGIYVGEVNPNSIAAKDGRIREGDRIIQINGVDVQNREEAVAILSQEENTNISLLVARP	0.85
8) Rho GTPase-activating protein 21, PDZ domain (N2H construct) (domain or fragment) TVTLKRTSQGFGFTLRHFIVYPPESAIQFSYKDEENGNRGGKQRNRLEPMDTIFVKQVKEGGPAFEAGLCTGDRIIKVNGESVIGKTYSQVIALIQNSDTTLELSVMPKD	< 0.25
9) 26S proteasome non-ATPase regulatory subunit 9, PDZ domain (N2H construct) (domain or fragment) QARDMAEAHKEAMSRKLGQSESQGPPRAFAKVNSISPGSPASIAGLQVDDEIVEFGSVNTQNFQSLHNIGSVVQHSEGKPLNVTVIRR	1.21
10) T-lymphoma invasion and metastasis-inducing protein 2, PDZ domain (N2H construct) (domain or fragment) DVQLTKTGSVCDFGFAVTAQVDERQHLSRIFISDVLPDGLAYGEGLRKGNEIMTLNGEAVSDLDLKQMEALFSEKSVGLTLIARPPD	0.65
11) Rho guanine nucleotide exchange factor 12, PDZ domain (N2H construct) (domain or fragment) CVIIQKDDNGFGLTVSGDNPVFVQSVKEDGAAMRAGVQTGDRIIKVNGTLVTHSNHLEVVKLIKSGSYVALTVQGRPPGS	< 0.25
12) SH3 and multiple ankyrin repeat domains protein 1, PDZ domain (N2H construct) (domain or fragment) TVLLQKKDSEGFGFVLRGAKAQTPIEEFTPTPAFPALQYLESVDEGGVAWRAGLRMGDFLIEVNGQNVVKVGHRQVVNMIRQGGNTLMVKVVMVT	1.66
13) SH3 and multiple ankyrin repeat domains protein 3, PDZ domain (N2H construct) (domain or fragment) VAVLQKRDHEGFGFVLRGAKAETPIEEFTPTPAFPALQYLESVDVEGVAWRAGLRTGDFLIEVNGVNVVKVGHKQVVALIRQGGNRLVMKVVSVT	< 0.25
14) Zona Occludens 3; Tight Junction Protein 3, PDZ domain 3 (N2H construct) (domain or fragment) DTRVVRFLKGKSIGLRLAGGNDVGIFVSGVQAGSPADGQGIQEGDQILQVNDVPFQNLTREEAVQFL	0.72
15) Zona Occludens 3; Tight Junction Protein 3, PDZ domain 1 (N2H construct) (domain or fragment) TATLSKDPRRGFGIAISGGRDRPGGSMVVSDVVPGGPAEGRLQTGDHIVMVNGVSMENATSAFAIQILKTCTKMANITVKRPR	3.05
16) Beta-1-syntrophin, PDZ domain (N2H construct) (domain or fragment) GVKVLKQELGGLGISIKGGKENKMPILISKIFKGLAADQTQALYVGDAILSVNGADLRDATHDEAVQALKRAGKEVLLEVKYMR	< 0.25
17) PDZ and LIM domain protein 1, PDZ domain (N2H construct) (domain or fragment) TQQIDLQGPGPWGFRLVGGKDFEQPLAISRVTPGSKAALANLCIGDVITAIDGENTSNMTHLEAQNRIKGCTDNLTLTVARSE	27.2
18) PDZ domain-containing protein GIPC3, PDZ domain (N2H construct) (domain or fragment) EVEVTKTEDALGLTITDNGAGYAFIKRIKEGSIINRIEAVCVGDSIEAINDHSIVGCRHYEVAKMLRELPKSQPFTLRLVQ	2.15
19) Whirlin, PDZ domain 3 (N2H construct) (domain or fragment) LVRVKKSAATLGIAIEGGANTRQPLPRIVTIQRGGSAHNCGQLKVGHVILEVNGLTLRGKEHREAARIIAEAFKTKDRDYIDFL	0.38
